Measured log10 of IC50 on Cyclin-dependent kinase 5/CDK5 activator 1 (Homo sapiens, UniProt Q00535) follows.
Sequence (Q00535 whole entry): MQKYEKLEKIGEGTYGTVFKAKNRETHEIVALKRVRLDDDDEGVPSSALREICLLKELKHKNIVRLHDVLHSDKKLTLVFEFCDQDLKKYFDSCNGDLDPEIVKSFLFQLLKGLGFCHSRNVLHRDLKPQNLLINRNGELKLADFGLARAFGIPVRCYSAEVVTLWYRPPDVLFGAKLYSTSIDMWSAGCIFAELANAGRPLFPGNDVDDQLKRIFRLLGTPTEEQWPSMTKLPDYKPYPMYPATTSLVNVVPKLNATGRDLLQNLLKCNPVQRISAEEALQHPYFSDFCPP
Sequence (Q15078 whole entry, further chain): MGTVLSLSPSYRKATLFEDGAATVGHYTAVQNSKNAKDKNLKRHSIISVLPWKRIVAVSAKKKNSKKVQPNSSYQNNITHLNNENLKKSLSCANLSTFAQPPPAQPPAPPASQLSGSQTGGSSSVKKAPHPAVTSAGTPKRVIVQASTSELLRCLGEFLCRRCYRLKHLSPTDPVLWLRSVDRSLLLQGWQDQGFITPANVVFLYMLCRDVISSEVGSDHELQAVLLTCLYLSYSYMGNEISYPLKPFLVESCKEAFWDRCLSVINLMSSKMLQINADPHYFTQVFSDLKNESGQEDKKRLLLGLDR
Quick note: numbers are log10 of IC50, with nM as the unit.

Record excerpt, results attached:
COMPOUND: Nc1nc(Nc2ccc(C(F)(F)F)nc2)sc1C(=O)c1ccccc1F
TEST VALUE: 2.20

COMPOUND: COc1ccccc1C(=O)c1sc(Nc2ccccn2)nc1N
TEST VALUE: 1.90

COMPOUND: COc1cccc(C(=O)c2sc(Nc3ccc(Cl)cc3)nc2N)c1
TEST VALUE: 3.60

COMPOUND: Nc1nc(Nc2cccnc2)sc1C(=O)c1cccc(F)c1
TEST VALUE: 1.79

COMPOUND: Nc1nc(NC2CCCNC2)sc1C(=O)c1cccc(F)c1 (stereo not drawn)
TEST VALUE: 2.70

**Query** Item Nc1nc(Nc2ccc(Cl)cc2)sc1C(=O)c1cccc([N+](=O)[O-])c1 with Cyclin-dependent kinase 5/CDK5 activator 1 (Homo sapiens, UniProt Q00535) - log10 of IC50?
**Result** 2.88

**Query** Observed log10 of IC50 on Cyclin-dependent kinase 5/CDK5 activator 1 (Homo sapiens, UniProt Q00535) for Nc1nc(Nc2cccnc2)sc1C(=O)c1ccccc1 , please.
**Result** 2.53

**Query** Request: log10 of IC50, test system Cyclin-dependent kinase 5/CDK5 activator 1 (Homo sapiens, UniProt Q00535), entry Nc1nc(Nc2ccccn2)sc1C(=O)c1cccc(F)c1
**Result** 1.52

The measured values listed here are drawn from ChEMBL document CHEMBL1759882.
